Molecular target: GRK2 (Homo sapiens)
Construct: purchased SignalChem A14-10G
Sequence (P25098 1-689): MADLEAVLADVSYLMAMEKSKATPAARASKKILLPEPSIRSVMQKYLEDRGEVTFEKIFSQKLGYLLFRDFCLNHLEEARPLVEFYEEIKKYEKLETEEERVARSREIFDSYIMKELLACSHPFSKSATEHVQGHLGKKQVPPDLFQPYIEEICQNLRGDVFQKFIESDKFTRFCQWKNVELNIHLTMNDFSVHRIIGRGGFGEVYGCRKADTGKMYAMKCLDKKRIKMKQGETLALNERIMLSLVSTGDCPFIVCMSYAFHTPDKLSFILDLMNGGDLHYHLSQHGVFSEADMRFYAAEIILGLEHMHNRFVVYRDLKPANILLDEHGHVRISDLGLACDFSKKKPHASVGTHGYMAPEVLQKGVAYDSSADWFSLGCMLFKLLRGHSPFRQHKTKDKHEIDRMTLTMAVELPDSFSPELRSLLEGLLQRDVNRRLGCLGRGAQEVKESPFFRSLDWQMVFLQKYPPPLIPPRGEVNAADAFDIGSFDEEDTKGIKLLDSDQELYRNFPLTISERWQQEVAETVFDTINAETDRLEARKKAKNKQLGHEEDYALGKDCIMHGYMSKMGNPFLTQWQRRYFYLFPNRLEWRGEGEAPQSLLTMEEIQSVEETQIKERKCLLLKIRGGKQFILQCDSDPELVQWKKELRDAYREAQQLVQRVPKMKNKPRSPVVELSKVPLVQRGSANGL
Test: GRK2 Inhibition Assay (TR-FRET, Example 7)
Format: biochemical
Conditions: TR-FRET GRK2 enzyme assay; read-out: B: Enzymatic GRK2: IC50 (nM) (Example 7)
IC50 vs 800 nM: less than gives satisfied; not less than gives not satisfied.

- compound: "Cn1c(CNc2cccc(C(=O)N[C@H]3COc4c(Cl)cccc43)c2)nnc1-c1ccncn1"
  systemName: "GRK2 (Homo sapiens)"
  assignedCategory: "satisfied"
- compound: "Cn1c(CNc2cccc(C(=O)N[C@@H]3COCc4ccccc43)c2)nnc1-c1ccncn1 [drawing 851]"
  systemName: "GRK2 (Homo sapiens)"
  assignedCategory: "satisfied"
- compound: "Cn1c(CNc2cccc(C(=O)N[C@@H](C#N)c3ccccc3C(F)(F)F)c2)nnc1-c1ccncn1"
  systemName: "GRK2 (Homo sapiens)"
  assignedCategory: "satisfied"

IN: Is 800 nM strictly greater than the compound's reported IC50? compound: CCc1cnccc1CNC(=O)c1cccc(NCc2nnc(-c3ccncn3)n2[C@H]2CC[C@H](NC)C2)c1
OUT: not satisfied
